Molecular target: PTP1B (Homo sapiens, UniProt P18031)
Construct: gene PTPN1; human recombinant (Abcam ab51277)
Sequence (P18031 1-435): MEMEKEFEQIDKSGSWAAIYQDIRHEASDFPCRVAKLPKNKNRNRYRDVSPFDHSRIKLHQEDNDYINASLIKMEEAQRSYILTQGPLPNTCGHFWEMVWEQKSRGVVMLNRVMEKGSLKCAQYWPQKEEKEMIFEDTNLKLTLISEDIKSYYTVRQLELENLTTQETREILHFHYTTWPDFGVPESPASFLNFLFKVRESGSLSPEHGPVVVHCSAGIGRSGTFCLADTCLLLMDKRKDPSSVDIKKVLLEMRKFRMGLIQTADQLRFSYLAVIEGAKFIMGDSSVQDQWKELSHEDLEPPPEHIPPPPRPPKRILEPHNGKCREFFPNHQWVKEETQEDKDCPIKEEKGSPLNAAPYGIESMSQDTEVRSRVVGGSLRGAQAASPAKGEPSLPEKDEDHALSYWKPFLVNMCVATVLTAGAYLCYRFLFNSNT
Experiment: recombinant PTP1B pNPP hydrolysis assay, absorbance […] nm
Format: biochemical
Endpoint label: IC50 (µM)
Provide the reading as a plain figure in µM.

1) COc1cc(O)cc(C)c1Cc1c(O)cc(C)oc1=O: 42.3
2) COc1cc(O)cc(C)c1C[C@]1(C(N)=O)OC(C)=CC1=O [(−)-1, (−)-asperfuranone]: 35.5
3) COc1cc(O)cc(C)c1CC1(C(N)=O)OC(C)=CC1=O (racemic) [(±)-1, Asperfuranone (1)]: 45.8

Moving on to the next compound.
[ask] Any idea what its IC50 is? The compound is COc1cc(O)cc(C)c1C[C@@]1(C(N)=O)OC(C)=CC1=O
[reply] 17.3
